measurement_protocol: S16 Schwann cell viability assay (CellTiter-Glo assay) (AID 624031); also: nearly all actives have a fitted effect of over 70% in size; also: potency is read from the fitted curve at half-maximal effect
study_conditions: S16 rat Schwann cells viability, 24 h; series mostly up to 57.5 µM
Results filed as inconclusive are left out. Activity calls are given as the source filed them. Calls follow the shape of the dose curve; as a rule, active = well fitted cell-killing curve with a large enough effect; inconclusive = small, poorly fitted or top-dose-only effect, or effect the other way; inactive = flat fitted curve, though single readings scatter.
measured_property: Potency

INSERT INTO results (compound, measurement) VALUES
  ('CN(C)CCCCCCN(C)C', 'inactive'),
  ('CN1CC[C@H](CN2c3ccccc3Sc3ccccc32)C1', '36.1 µM (active)'),
  ('CC(C)CN(C[C@@H](OP(=O)(O)O)[C@H](Cc1ccccc1)NC(=O)O[C@@H]1CCOC1)S(=O)(=O)c1ccc(N)cc1', 'inactive'),
  ('C/C=C\c1ccc(OC)cc1', 'inactive'),
  ('CCC(C)n1ncn(-c2ccc(N3CCN(c4ccc(OCC5COC(Cn6cncn6)(c6ccc(Cl)cc6Cl)O5)cc4)CC3)cc2)c1=O (stereo unspecified)', 'inactive');

// next entry
Input CC(C)(CO)C(O)C(=O)NCCCC(=O)O (stereo unspecified) . Output Potency: inactive

====

measurement_protocol: Dual reporter qHTS for agonist of Pregnane X Receptor (hPXR) against the NCATS DSHEA and TCM libraries: Fluorescence readout (AID 1920058); also: 0% is about no effect
study_conditions: PXR dual reporter cells; series mostly up to 40 µM
Activity calls are given as the source filed them. Calls follow the shape of the dose curve; as a rule, active = well fitted curve in the direction sought with a large enough effect; inconclusive = small, poorly fitted or top-dose-only effect, or another doubt; inactive = no such curve, though single readings can be large or run the other way.
measured_property: activation

INSERT INTO results (compound, measured_property, measurement) VALUES
  ('CCCCCC(=O)O', 'activation', 'inactive'),
  ('C=C(C)[C@H]1CC=C(CO)CC1', 'activation', 'inactive'),
  ('C[C@@H]1OC(O[C@H]2[C@H](O)[C@@H](O)[C@H](OC[C@H]3O[C@@H](OC(=O)[C@]45CCC(C)(C)C[C@@H]4C4=CCC6[C@@]7(C)CC[C@H](OC8OC[C@H](O)[C@H](O)[C@H]8OC8O[C@@H](C)[C@H](O)[C@@H](O)[C@H]8O)[C@@](C)(CO)C7CC[C@@]6(C)[C@]4(C)CC5)[C@H](O)[C@@H](O)[C@@H]3O)O[C@@H]2CO)[C@H](O)[C@H](O)[C@H]1O (stereo partly drawn)', 'activation', 'inactive');

====

measured_on: Rap guanine nucleotide exchange factor 3 (Homo sapiens)
measurement_protocol: Confirmatory qHTS for agonist of cAMP-regulated guanine nucleotide exchange factor 3 (EPAC1) (AID 1645881); also: nearly all actives have a fitted effect of over 75% in size;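 as to activation: EPAC1 catalysed release of BODIPY-GDP from Rap1B seen as fluorescence loss; 100% = effect of cAMP agonist control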
study_conditions: EPAC1 Rap1B BODIPY-GDP exchange fluorescence; series mostly up to 154 µM
Results filed as inconclusive are left out. Calls of active or inactive are those of the source. Calls follow the shape of the dose curve; as a rule, active = well fitted activation curve with a large enough effect; inconclusive = small, poorly fitted or top-dose-only effect; inactive = no such curve, though single readings can be large or run the other way.
Pick one: class 1 for active, class 0 for inactive

*Q* I would be grateful if you could indicate the recorded call for CC(C)Cn1nc(NS(=O)(=O)c2cccc3nonc23)c2cc3ccccc3nc21 .
*A* class 0

*Q* I would be grateful if you could indicate the recorded call for O=C(Cc1ccccc1)Nn1c(O)c(/C=C2\C=Nc3ccccc32)sc1=S .
*A* class 1

*Q* I would be grateful if you could indicate the recorded call for C[C@@H]1CC=C[C@H]2[C@H]1C(=O)N(Cc1ccccc1)[C@H]2c1ccc(C(F)(F)F)cc1 .
*A* class 0

*Q* I would be grateful if you could indicate the recorded call for O=C(NN1C(=O)/C(=C\c2ccc(O)c([N+](=O)[O-])c2)SC1=S)c1ccccc1Cl .
*A* class 0

*Q* I would be grateful if you could indicate the recorded call for COc1ccc2ccc3c(c2c1)N=C[C@]1(O3)N(C)c2ccccc2C1(C)C .
*A* class 0

*Q* I would be grateful if you could indicate the recorded call for CCCC[C@H]1COCCS(=O)(=O)N1Cc1ccc(Br)cc1 .
*A* class 0

*Q* I would be grateful if you could indicate the recorded call for O=C(CCN1C(=O)S/C(=C\c2ccc(Cl)cc2)C1=O)Nc1ccc(C(=O)O)cc1 .
*A* class 0

*Q* I would be grateful if you could indicate the recorded call for COc1ccccc1C1CCN(c2ccc(CO)cc2[N+](=O)[O-])CC1 .
*A* class 0

*Q* I would be grateful if you could indicate the recorded call for COc1cc(C(c2c(C(=O)O)[nH]c3ccccc23)c2c(C(=O)O)[nH]c3ccccc23)ccc1OCc1ccccc1 .
*A* class 0

*Q* I would be grateful if you could indicate the recorded call for O=C1C=C(NCc2ccccc2)c2ccccc2C1=O .
*A* class 0

*Q* I would be grateful if you could indicate the recorded call for COc1ccc(N2C(=O)CSC23C(=O)N(Cc2cccc(C(F)(F)F)c2)c2ccccc23)cc1 (configuration not stated) .
*A* class 0

*Q* I would be grateful if you could indicate the recorded call for COc1ccc2c(c1)Cc1sc(NC(=O)c3ccccc3C)nc1-2 .
*A* class 0

*Q* I would be grateful if you could indicate the recorded call for CC(C)Cn1c(N)c(C(=O)COC(=O)c2cc(-c3ccco3)nc3ccccc23)c(=O)n(C)c1=O .
*A* class 0

*Q* I would be grateful if you could indicate the recorded call for O=C(COc1ccc(Cl)cc1)NC1=NN(c2ccccc2)C(=O)C1 .
*A* class 0

*Q* I would be grateful if you could indicate the recorded call for C/C(CC(=O)N1CCCC1)=N\NC(=O)c1cc2ccccc2cc1O .
*A* class 0

*Q* I would be grateful if you could indicate the recorded call for CCCC1=C(C(=O)OCC)C(c2ccco2)C(C#N)=C(N)O1 (configuration not stated) .
*A* class 0

*Q* I would be grateful if you could indicate the recorded call for O=C(O)CN1C(=O)/C(=C\c2cc([N+](=O)[O-])ccc2OCc2ccccc2Cl)SC1=S .
*A* class 0

*Q* I would be grateful if you could indicate the recorded call for CC(=O)OCCNc1cc(N2CCN(C)CC2)c2noc3c2c1C(=O)c1ccccc1-3 .
*A* class 0

*Q* I would be grateful if you could indicate the recorded call for CN1CCN(c2ncc3nc(CCc4ccccc4)c(=O)n(Cc4cccs4)c3n2)CC1 .
*A* class 0

*Q* I would be grateful if you could indicate the recorded call for Cc1nn(C(=O)c2ccco2)c(C)c1Sc1ccccc1 .
*A* class 0

*Q* I would be grateful if you could indicate the recorded call for Cc1[nH][nH]c(=O)c1C(c1ccc(-c2ccc(Cl)c(C(=O)O)c2)o1)c1c(C)[nH][nH]c1=O .
*A* class 0

*Q* I would be grateful if you could indicate the recorded call for CC(C)(C)Cc1c(-c2ccccc2)nc2ccc(Cl)cn12 .
*A* class 0

*Q* I would be grateful if you could indicate the recorded call for Cc1ccc(/C=N/N2CCN(Cc3cccc4ccccc34)CC2)o1 .
*A* class 0

*Q* I would be grateful if you could indicate the recorded call for CCOC(=O)C1(O)Oc2cc(OC)cc(OC)c2C(=O)C1c1ccccc1 (configuration not stated) .
*A* class 0

*Q* I would be grateful if you could indicate the recorded call for O=C(N/N=C/c1ccoc1)c1cc(O)cc(O)c1 .
*A* class 0

*Q* I would be grateful if you could indicate the recorded call for COc1cc(/C=C(\C#N)C(=O)Nc2ccccc2C(=O)O)cc(Cl)c1OC .
*A* class 0

*Q* I would be grateful if you could indicate the recorded call for O=C1ON=C(c2ccccc2)/C1=C/c1ccc(-c2ccccc2[N+](=O)[O-])o1 .
*A* class 0

*Q* I would be grateful if you could indicate the recorded call for O=C(c1ccccc1Cc1ccccc1)N1CCN(S(=O)(=O)c2ccccc2Br)CC1 .
*A* class 0

*Q* I would be grateful if you could indicate the recorded call for Cc1cccc(C)c1NC(=O)Cn1c(=O)n(Cc2ccc(C(=O)NCc3ccco3)cc2)c(=O)c2sccc21 .
*A* class 0

*Q* I would be grateful if you could indicate the recorded call for CCC1(c2ccccc2)SCC(c2ccccc2)=NC1=O (configuration not stated) .
*A* class 0

*Q* I would be grateful if you could indicate the recorded call for Cc1ccc(C)c(Cn2c(CN(C)Cc3ccccc3)nc3c2c(=O)n(C)c(=O)n3C)c1 .
*A* class 0

*Q* I would be grateful if you could indicate the recorded call for Cn1c(N)c(C(=O)COC(=O)CCOc2ccc(C(C)(C)C)cc2)c(=O)n(C)c1=O .
*A* class 0

*Q* I would be grateful if you could indicate the recorded call for Cc1ccc(N(C(=O)c2ccccc2Cl)C2=NC(C)CS2)c(C)c1 (configuration not stated) .
*A* class 0

*Q* I would be grateful if you could indicate the recorded call for COc1ccc(/C=C/C(=O)c2ccccc2)c(OC)c1 .
*A* class 0

*Q* I would be grateful if you could indicate the recorded call for Cc1ccc(S(=O)(=O)/N=C2\C=C(NS(=O)(=O)c3ccccc3)C(=O)c3ccccc32)c(C)c1 .
*A* class 0

*Q* I would be grateful if you could indicate the recorded call for Cc1ccc(C(=O)NN2C(=O)/C(=C/c3cn(C)c4ccccc34)SC2=S)cc1 .
*A* class 0

*Q* I would be grateful if you could indicate the recorded call for C=CCn1cc(C(=O)NCCCOC)c(=O)c2cc(S(=O)(=O)N(CC)CC)ccc21 .
*A* class 0

*Q* I would be grateful if you could indicate the recorded call for O=C1C(=Cc2ccccc2Cl)CCc2ccccc21 .
*A* class 0

*Q* I would be grateful if you could indicate the recorded call for Cc1cc(S(=O)(=O)N2CCN(CC(=O)N(C)Cc3ccccc3)CC2)ccc1Br .
*A* class 0

*Q* I would be grateful if you could indicate the recorded call for NC(=O)c1ccsc1NC(=O)CS(=O)(=O)c1ccc(F)cc1 .
*A* class 0

*Q* I would be grateful if you could indicate the recorded call for COC(=O)c1cc(Br)c(=O)n(CCc2ccc(F)cc2)c1 .
*A* class 0

*Q* I would be grateful if you could indicate the recorded call for CCCCCNC(=O)C(C#N)c1nc2ccccc2nc1N1CCCC1 (configuration not stated) .
*A* class 0
